# MEASURED TARGET: AcP2X (Aplysia P2X receptor) (Aplysia californica)
# Construct: full-length CDS AcP2X (GenBank NP_001191558.1) expressed in Xenopus oocytes
# TEST METHOD NOTES: two-electrode voltage clamp in Xenopus oocytes, agonist dose-response (fast component; slow component EC50 […])
MEASURE: pEC50
// pEC50: -log10(molar conc.)

**Query** For the molecule shown here, Nc1ncnc2c1ncn2[C@@H]1O[C@H](COP(=O)(O)OP(=O)(O)OP(=O)(O)O)[C@@H](O)[C@H]1O [ATP] , give the reported pEC50.
**Result** 3.51

###

# MEASURED TARGET: AcP2X (Aplysia P2X receptor) (Aplysia californica, UniProt E2QDA7)
# Construct: full-length CDS AcP2X (GenBank NP_001191558.1) expressed in Xenopus oocytes
# Sequence (E2QDA7 1-434): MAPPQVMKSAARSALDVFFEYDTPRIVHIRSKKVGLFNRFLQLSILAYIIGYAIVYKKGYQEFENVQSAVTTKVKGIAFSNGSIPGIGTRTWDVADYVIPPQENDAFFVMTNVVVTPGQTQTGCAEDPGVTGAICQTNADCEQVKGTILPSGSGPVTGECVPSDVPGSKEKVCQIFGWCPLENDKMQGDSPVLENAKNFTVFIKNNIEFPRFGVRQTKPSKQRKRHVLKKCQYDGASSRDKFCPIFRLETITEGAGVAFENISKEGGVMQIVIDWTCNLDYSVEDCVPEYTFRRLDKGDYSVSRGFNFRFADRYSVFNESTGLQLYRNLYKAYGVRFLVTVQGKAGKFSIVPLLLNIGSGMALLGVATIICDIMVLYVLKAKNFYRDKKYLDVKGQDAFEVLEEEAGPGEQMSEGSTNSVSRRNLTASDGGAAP
# TEST METHOD NOTES: two-electrode voltage clamp in Xenopus oocytes, inhibition of current evoked by […] ATP (fast component)
MEASURE: pIC50
// pIC50: -log10(molar conc.)

**Query** For the compound shown here, Cc1nc(/N=N/c2ccc(S(=O)(=O)O)cc2S(=O)(=O)O)c(COP(=O)(O)O)c(C=O)c1O [PPADS] , give the reported pIC50.
**Result** 3.68
